Data provenance: ChEMBL document CHEMBL4038284

System: SNB-75
Experiment: Growth inhibition of human SNB75 cells incubated for 48 hrs by sulforhodamine B assay
Format: functional
Settings: SNB-75, 48 h, read-out: LC50 (the source's name)
OBSERVABLE: CC50

QUERY: Recorded CC50 of `COc1cccc2c1C(=O)c1c(O)c3c(c(O)c1C2=O)C[C@@](O)(C(=O)CO)C[C@@H]3O[C@H]1C[C@H](N)[C@H](O)[C@H](C)O1` , please.
RESULT: 3.3 µM

QUERY: I am curious: what CC50 value has been reported for `COc1ccc(C(=O)/C=C/c2cccc(Nc3ccnc4cc(Cl)ccc34)c2)cc1` ?
RESULT: > 100 µM

QUERY: Query (molecule): `COc1cc(C(=O)/C=C/c2cccc(Nc3ccnc4cc(Cl)ccc34)c2)cc(OC)c1OC` ; field requested: CC50
RESULT: > 100 µM

QUERY: Tell me the measured CC50 of O=CN1N=C(c2ccc(Cl)cc2)CC1c1cccc(Nc2ccnc3cc(Cl)ccc23)c1 (stereo not given) , please.
RESULT: > 100 µM

QUERY: Looking for the measured CC50 of COc1ccc(C2=NN(C=O)C(c3cccc(Nc4ccnc5cc(Cl)ccc45)c3)C2)cc1 (stereo not given) , can you help?
RESULT: > 100 µM

====

Tested on: Candida albicans
Test: Growth inhibition of Candida albicans ATCC 10231 at 250 ug/ml incubated for 48 hrs under dark condition by broth microdilution method relative to control
Format: functional
Details: ATCC 10231, 48 h, read-out: GI
OBSERVABLE: inhibition of growth at 250 µg/mL (%)
// note: answer is a bare numeric in %

QUERY: Requested read-out: inhibition of growth at 250 µg/mL. Entry: O=CN1N=C(c2ccccc2)CC1c1cccc(Nc2ccnc3cc(Cl)ccc23)c1 (stereo not drawn)
RESULT: 29.9

QUERY: What value of inhibition of growth at 250 µg/mL has been reported for the following compound? Clc1ccc(N2N=C(c3ccc(Br)cc3)CC2c2cccc(Nc3ccnc4cc(Cl)ccc34)c2)cc1 (stereo not drawn)
RESULT: 39.6

QUERY: # query: inhibition of growth at 250 µg/mL of entry Clc1ccc2c(Nc3cccc(C4CC(c5ccccc5)=NN4c4ccccc4)c3)ccnc2c1 (stereo not drawn)
RESULT: 53

QUERY: I have this compound here, Cc1ccc(C2=NN(c3ccc(Cl)cc3)C(c3cccc(Nc4ccnc5cc(Cl)ccc45)c3)C2)cc1 (stereo not drawn) , and I need its recorded inhibition of growth at 250 µg/mL.
RESULT: 36.5

QUERY: Please look up its inhibition of growth at 250 µg/mL: Clc1ccc(N2N=C(c3ccccc3)CC2c2cccc(Nc3ccnc4cc(Cl)ccc34)c2)cc1 (stereo not drawn)
RESULT: 26.9

QUERY: Need inhibition of growth at 250 µg/mL, item Clc1cc(Cl)cc(N2N=C(c3ccc(Br)cc3)CC2c2cccc(Nc3ccnc4cc(Cl)ccc34)c2)c1 (stereo not drawn)
RESULT: 13.7

QUERY: Record request: inhibition of growth at 250 µg/mL value, item COc1ccc(C2=NN(c3ccccc3)C(c3cccc(Nc4ccnc5cc(Cl)ccc45)c3)C2)cc1 (stereo not drawn)
RESULT: 25.6

QUERY: # lookup: inhibition of growth at 250 µg/mL of Clc1ccc2c(Nc3cccc(C4CC(c5ccc(Br)cc5)=NN4c4ccccc4)c3)ccnc2c1 (stereo not drawn)
RESULT: 44.9

QUERY: Any idea what its inhibition of growth at 250 µg/mL is? The compound is `COc1ccc(C(=O)/C=C/c2cccc(Nc3ccnc4cc(Cl)ccc34)c2)cc1`
RESULT: 59.6

QUERY: Fill in the blank: the reported inhibition of growth at 250 µg/mL of `O=Cc1cccc(Nc2ccnc3cc(Cl)ccc23)c1` is ____.
RESULT: 59.2

QUERY: Which inhibition of growth at 250 µg/mL is reported for this compound? O=CN1N=C(c2ccc(Cl)cc2)CC1c1cccc(Nc2ccnc3cc(Cl)ccc23)c1 (stereo not drawn)
RESULT: 67.5

QUERY: Can you look up the measured inhibition of growth at 250 µg/mL of O=CN1N=C(c2ccc(Br)cc2)CC1c1cccc(Nc2ccnc3cc(Cl)ccc23)c1 (stereo not drawn) for me?
RESULT: 58.7

QUERY: Give the measured inhibition of growth at 250 µg/mL of CC(=O)N1N=C(c2ccc(C)cc2)CC1c1cccc(Nc2ccnc3cc(Cl)ccc23)c1 (stereo not drawn) .
RESULT: 67.8

QUERY: Field request: inhibition of growth at 250 µg/mL | item: `Cc1ccc(C(=O)/C=C/c2cccc(Nc3ccnc4cc(Cl)ccc34)c2)cc1`
RESULT: 63.6

QUERY: I'd like to know its inhibition of growth at 250 µg/mL. The compound in question is COc1ccc(C2=NN(C=O)C(c3cccc(Nc4ccnc5cc(Cl)ccc45)c3)C2)cc1 (stereo not drawn)
RESULT: 34.5

QUERY: Tell me the measured inhibition of growth at 250 µg/mL of COc1ccc(C2=NN(c3ccc(Cl)cc3)C(c3cccc(Nc4ccnc5cc(Cl)ccc45)c3)C2)cc1 (stereo not drawn) , please.
RESULT: 3.08

QUERY: Query: inhibition of growth at 250 µg/mL; subject: `O=C(/C=C/c1cccc(Nc2ccnc3cc(Cl)ccc23)c1)c1ccccc1`
RESULT: 43.5

QUERY: I am curious: what inhibition of growth at 250 µg/mL value has been reported for Cc1ccc(C2=NN(C=O)C(c3cccc(Nc4ccnc5cc(Cl)ccc45)c3)C2)cc1 (stereo not drawn) ?
RESULT: 48.4

QUERY: Quick one: inhibition of growth at 250 µg/mL for CC(=O)N1N=C(c2ccc(Cl)cc2)CC1c1cccc(Nc2ccnc3cc(Cl)ccc23)c1 (stereo not drawn) ?
RESULT: 40.9

QUERY: Which inhibition of growth at 250 µg/mL is reported for this compound? Cc1ccc(C2=NN(c3ccccc3)C(c3cccc(Nc4ccnc5cc(Cl)ccc45)c3)C2)cc1 (stereo not drawn)
RESULT: 28.3

QUERY: I am curious: what inhibition of growth at 250 µg/mL value has been reported for Clc1ccc(C2=NN(c3cc(Cl)cc(Cl)c3)C(c3cccc(Nc4ccnc5cc(Cl)ccc45)c3)C2)cc1 (stereo not drawn) ?
RESULT: 35

QUERY: Find the recorded inhibition of growth at 250 µg/mL belonging to CC(=O)N1N=C(c2ccc(Br)cc2)CC1c1cccc(Nc2ccnc3cc(Cl)ccc23)c1 (stereo not drawn) and report it.
RESULT: 29.9

QUERY: So what does the record say about inhibition of growth at 250 µg/mL for `O=C(/C=C/c1cccc(Nc2ccnc3cc(Cl)ccc23)c1)c1ccc(Br)cc1` ?
RESULT: 58

QUERY: // query inhibition of growth at 250 µg/mL value for entry COc1ccc(C2=NN(c3cc(Cl)cc(Cl)c3)C(c3cccc(Nc4ccnc5cc(Cl)ccc45)c3)C2)cc1 (stereo not drawn)
RESULT: 27.9

QUERY: For COc1ccc(C2=NN(C(C)=O)C(c3cccc(Nc4ccnc5cc(Cl)ccc45)c3)C2)cc1 (stereo not drawn) , what is its reported inhibition of growth at 250 µg/mL?
RESULT: 37.5

QUERY: What measured inhibition of growth at 250 µg/mL goes with COc1cc(C2=NN(c3ccc(Cl)cc3)C(c3cccc(Nc4ccnc5cc(Cl)ccc45)c3)C2)cc(OC)c1OC (stereo not drawn) ?
RESULT: 26.5

QUERY: Which inhibition of growth at 250 µg/mL is listed for `COc1cc(C(=O)/C=C/c2cccc(Nc3ccnc4cc(Cl)ccc34)c2)cc(OC)c1OC` ?
RESULT: 13.7

QUERY: What inhibition of growth at 250 µg/mL value was documented for this compound, COc1cc(C2=NN(c3ccccc3)C(c3cccc(Nc4ccnc5cc(Cl)ccc45)c3)C2)cc(OC)c1OC (stereo not drawn) ?
RESULT: 60.5

QUERY: Given the entry Clc1ccc(C2=NN(c3ccc(Cl)cc3)C(c3cccc(Nc4ccnc5cc(Cl)ccc45)c3)C2)cc1 (stereo not drawn) , report its measured inhibition of growth at 250 µg/mL.
RESULT: 40.4

QUERY: # query: inhibition of growth at 250 µg/mL of entry Clc1ccc(C2=NN(c3ccccc3)C(c3cccc(Nc4ccnc5cc(Cl)ccc45)c3)C2)cc1 (stereo not drawn)
RESULT: 19.8

QUERY: For the compound shown here, `O=C(/C=C/c1cccc(Nc2ccnc3cc(Cl)ccc23)c1)c1ccc(Cl)cc1` , give the reported inhibition of growth at 250 µg/mL.
RESULT: 78.4

QUERY: Could you share which inhibition of growth at 250 µg/mL value was measured for Cc1ccc(C2=NN(c3cc(Cl)cc(Cl)c3)C(c3cccc(Nc4ccnc5cc(Cl)ccc45)c3)C2)cc1 (stereo not drawn) ?
RESULT: 17.9

QUERY: Returns the measured inhibition of growth at 250 µg/mL for the input compound. Input: COc1cc(C2=NN(C(C)=O)C(c3cccc(Nc4ccnc5cc(Cl)ccc45)c3)C2)cc(OC)c1OC (stereo not drawn)
RESULT: 53.8
